z-score by entry:
# assay_notes: growth effects on S. cerevisiae YJM789 – YJM789 clinical isolate, OD600, 24 h, basal, primary screen (AID 1089);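 note: growth of clinical yeast isolate S. cerevisiae YJM 789 seeded 1000 cells per well; test concentration not given here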
# run_parameters: higher = more signal, called active from +8 up or from −8 down
Just the number, please.

Use the examples below as a reference point.
Would you kindly share the measured z-score for CCCCCN1CC=CC23O[C@@H]4C=CCCOC(=O)C4[C@H]2C(=O)N(CCCCCCO)[C@@H]3C1=O (stereo partly drawn) ?
-0.0966

And CN1C(=O)C2C=CC(C(O)c3cccn3C)N(Nc3ccc([N+](=O)[O-])cc3[N+](=O)[O-])C2C1=O (stereo not drawn) ?
0.82

And `CC1=C2[C@@H](CCc3ccccc3)OB(O)C[C@@H]2[C@@H]2C(=O)N(C)C(=O)[C@@H]2C1` ?
-0.229

And Cc1ccc(C(C)CC(O)C2C=CC3C(=O)N(c4ccccc4)C(=O)C3N2Nc2ccccc2)o1 (stereo not drawn) ?
0.568

And `CCCC=C(CCC)[C@@H](NS(=O)(=O)c1ccc(C(F)(F)F)cc1)c1ccccc1` ?
1.22

New cases:
Would you kindly share the measured z-score for `Cc1ccc(S[C@]2(C(=O)O)CC(=O)N(C3CCCCC3)[C@@H]2c2ccc(CO)cc2I)cc1` ?
-0.693

And `C=CCNC(=O)[C@H]1[C@@H]2C(=O)O[C@@H](c3ccccc3)[C@@H](c3ccccc3)N2[C@@H](c2ccccc2OCCO)[C@]12C(=O)N(C(=O)OCCOC)c1ccc(C#CC3(O)CCCCCC3)cc12` ?
-0.22

And `CCCC#C[Si](O[C@H](CC)c1cn([C@H](C)c2ccccc2)nn1)(C(C)C)C(C)C` ?
-0.764

====

composite z-score by entry:
# System: glycogen synthase kinase-3 (GSK3A per assay name; protocol says GSK3B)
# assay_notes: compounds binding glycogen synthase kinase-3 – biochemical, small-molecule microarray, 635 nm fluorescence, GSK3A, primary screen (AID 1103); note: the record names both GSK3A and GSK3B
# run_parameters: fluorescence 635 nm, higher = more signal
Just the number, please.

Would you kindly share the measured composite z-score for `COc1ccc([Si](C)(C)[C@@H]2[C@@H](CC(=O)N(CCO)Cc3ccccc3)O[C@]3(C(=O)N(Cc4cccc(N5CCCCC5=O)c4)c4ccccc43)[C@H]2C)cc1` ?
0.1

New cases:
Would you kindly share the measured composite z-score for COc1cc(C(O)C2C=CC3C(=O)N(C)C(=O)C3N2Nc2ccccc2)cc(OC)c1OC (stereo unspecified) ?
1.25

And `O=C(NCCN1CCOCC1)[C@@H]1c2ccccc2C(=O)N(Cc2ccccc2Cl)[C@H]1c1ccc(CO)cc1` ?
-0.52

And `C=C(COC)C(=O)CC[C@@H](OC(C)=O)c1cccc(OCCO)c1` ?
-0.911

And `CCCCNC(=O)c1ccc(C#CC(C)(C)C)c(OC(C)=O)c1` ?
1.04

And `C=CCN1Cc2ccccc2[C@@H]2OC(c3ccc(OCCCO)cc3)=N[C@]2(CC=C)C1=O` ?
1.22

And `C=CC[C@]1(C(=O)N2CCCCC2)N=C(c2ccc(OCCCO)cc2)O[C@H]1c1ccccc1CN=[N+]=[N-]` ?
1.31

And Cc1cc(C)c(C(O)C2C=CC3C(=O)N(c4ccccc4)C(=O)C3N2Nc2ccccc2F)c(C)c1 (stereo unspecified) ?
-0.574

And `CN(C)C(=O)[C@]1(Cc2ccccc2CN=[N+]=[N-])N=C(c2ccc(OCCCO)cc2)O[C@@H]1c1ccccc1` ?
0.497

And `COC(=O)[C@@]1(Cc2ccc(OC)cc2)[C@H]2c3cc(C(=O)N(C)C)n(Cc4ccc(C)o4)c3C[C@H]2CN1C(=O)c1ccccc1` ?
1.18

And O=C(Cc1ccccc1)[C@H]1C2C=CCCC(c3ccccc3)=C2CN1Cc1ccccc1 (stereo partly specified) ?
-0.117

And `Cc1ccc(S[C@]2(C(=O)NCc3ccccc3)CC(=O)N(C3CCCCC3)[C@@H]2c2ccc(CO)cc2I)cc1` ?
0.1

And `COC(=O)[C@@]1(Cc2ccc(OC)cc2)[C@H]2c3cc(C(=O)N4CCCC4)n(CCc4c[nH]c5ccc(OC)cc45)c3C[C@H]2CN1C(=O)c1ccccc1` ?
1.14

====

# measured_target: Carbonic anhydrase 2 (Homo sapiens) (UniProt P00918)
# assay_notes: compounds binding carbonic anhydrase 2 – biochemical, small-molecule microarray, Alexa647-labelled CAII, profiling panel (AID 1122)
# run_parameters: CAII-A647 binding fluorescence, higher = more signal
composite z-score by entry:
Just the number, please.

Would you kindly share the measured composite z-score for `CO[C@H]1O[C@H](CO)[C@@H](OC(=O)Nc2ccccc2)[C@H](OC(=O)c2cc3ccccc3[nH]2)[C@H]1OC(=O)c1cc2ccccc2[nH]1` ?
0.793

And `COc1cccc(C)c1NC(=O)O[C@H]1[C@H](OC(=O)Nc2ccccc2-c2ccccc2)[C@H](OC(=O)Nc2ccccc2-c2ccccc2)[C@@H](OC)O[C@@H]1CO` ?
0.434

New cases:
Would you kindly share the measured composite z-score for `[N-]=[N+]=NCc1ccccc1[C@@H]1OC(c2ccc(OCCCO)cc2)=N[C@]1(CCS(=O)(=O)c1ccccc1)C(=O)O` ?
0.786

====

# assay_notes: budding yeast growth changes without added modifier – OD600, strain BY4716, 24 h, basal condition, primary screen (AID 1173)
# run_parameters: S. cerevisiae BY4716 growth, OD600, 24 h; higher = more signal, called active from +8 up or from −8 down
measure: z-score
Just the number, please.

Use the examples below as a reference point.
Would you kindly share the measured z-score for `COc1ccccc1CN1C(=O)c2ccccc2[C@](Cc2ccccc2I)(C(=O)O)[C@@H]1c1ccc(CO)cc1` ?
-1.49

And O=C1C2C=CC(C(O)c3ccco3)N(Nc3ccccc3F)C2C(=O)N1c1ccccc1 (centres undefined) ?
-0.258

And C=CCC(OC(C)=O)[C@@H]1[C@@H](N(Cc2ccc(-c3cccc(C(F)(F)F)c3)o2)C(=O)Cc2ccc(OC)cc2)c2cc(OCCCO)ccc2N1C(=O)c1ccc(-c2ccccc2)cc1 (some centres undefined) ?
-0.0331

Let us move to another entry and its z-score.
Would you kindly share the measured z-score for `CCCC[C@@H](O)C1=C(COc2ccccc2)C[C@H]2C(=O)N(Cc3ccccc3)C(=O)[C@H]2[C@H]1CO` ?
-1.66

====

# Test system: Human papillomavirus type 1a protein E7 (residues 44-93)
# assay_notes: small molecules binding HPV E7 44-93 – biochemical, small-molecule microarray, residues 44-93, 635 nm fluorescence, primary screen (AID 1108);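 note: E7 fragment applied at 1 µg/mL in TBST for 1 h at 4 C; score combines spot fluorescence with its signal to noise ratio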
# run_parameters: fluorescence 635 nm, higher = more signal
measure: composite z-score

Use the examples below as a reference point.
Query the reported composite z-score for Human papillomavirus type 1a protein E7 (residues 44-93); item: COC(=O)C1=CC(CCCO)=CC(c2ccc(CN3CCCC3)cc2)N(Cc2cccc(OC(F)(F)F)c2)C=C1C(=O)OC (stereo not drawn)
1.38

And `CCOC(=O)C[C@H]1[C@H](OC(=O)c2cc3ccccc3oc2=O)[C@@H](NC(=O)c2ccc3ccccc3n2)c2cc(OCCCO)ccc2N1C(=O)Cc1ccc(OC)cc1` ?
1.23

Let us move to another entry and its composite z-score.
Query the reported composite z-score for Human papillomavirus type 1a protein E7 (residues 44-93); item: `COCCOC(=O)N1C(=O)[C@@]2(c3cc(C#CCCO)ccc31)[C@H](c1ccc(OCCO)cc1)N1[C@H](c3ccccc3)[C@H](c3ccccc3)OC(=O)[C@H]1[C@@H]2C(=O)Nc1nc2ccccc2s1`
0.281

====

z-score by entry:
# assay_notes: growth of efflux-deficient E. coli DRC39 – strain DRC39, OD650, 48 h, E. coli filamentation inducers, primary screen (AID 1179);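 note: screen aims at cell division blockers that make cells filament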
# run_parameters: E. coli DRC39 delta-acrAB growth, higher = more signal, called active from +8 up or from −8 down
Just the number, please.

Use the examples below as a reference point.
Would you kindly share the measured z-score for `C=CCN1C(=O)[C@]2(CCS(=O)(=O)c3ccccc3)N=C(c3ccc(OCCCO)cc3)O[C@@H]2c2ccccc21` ?
0.916

And `NC(=O)NCC#Cc1ccc2c(c1)[C@]1(C(=O)N2)[C@H](c2ccccc2OCCO)N2[C@H](c3ccccc3)[C@H](c3ccccc3)OC(=O)[C@H]2[C@@H]1C(=O)O` ?
-0.727

And `CCOC(=O)C[C@H]1[C@H](OC(=O)c2ccc(C(=O)c3ccccc3)cc2)[C@@H](NC(=O)C2CCCCC2)c2cc(OCCCO)ccc2N1C(=O)c1ccc2ccccc2n1` ?
0.991

New cases:
Would you kindly share the measured z-score for `CC(C)[Si]1(C(C)C)OCc2cc(-c3ccc(-c4ccc(Cl)c(Cl)c4)o3)nc(-c3ccccc3)c21` ?
-0.725

And `[N-]=[N+]=Nc1ccccc1C[C@]1(C(=O)O)COC(c2ccc(OCCCO)cc2)=N1` ?
-0.8

And `CC1=C2[C@@H](CCc3ccccc3)OB(O)C[C@@H]2[C@@H]2C(=O)N(C)C(=O)[C@@H]2C1` ?
0.561

And `C#CCN([C@@H](Cc1ccccc1)C(=O)OC)[C@@H](/C=C/C1CC1)[C@H](O)Cc1ccccc1` ?
0.03
